Assay Target: Arginase-2, mitochondrial (Homo sapiens)
Sequence (whole entry): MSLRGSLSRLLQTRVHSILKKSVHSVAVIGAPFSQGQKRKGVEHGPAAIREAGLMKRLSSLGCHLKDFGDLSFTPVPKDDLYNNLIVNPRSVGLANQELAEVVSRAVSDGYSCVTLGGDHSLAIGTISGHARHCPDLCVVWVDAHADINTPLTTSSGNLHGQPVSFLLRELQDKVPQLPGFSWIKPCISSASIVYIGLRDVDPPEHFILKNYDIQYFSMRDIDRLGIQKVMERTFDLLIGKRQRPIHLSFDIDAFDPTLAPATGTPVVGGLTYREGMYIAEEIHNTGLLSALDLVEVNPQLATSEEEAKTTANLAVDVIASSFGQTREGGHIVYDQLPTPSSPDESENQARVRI
Protocol Details: in vitro enzyme assay to detect the production of urea directly proportional to the activity of Arginase II
Assay type: functional
Parameters: scale not given: in the data most compounds retested in dose-response had high values
Conditions Used: 33.3 µM
Measurement Kind: Percent Effect (%)
Unit % implied. Number only.

>>> df
                                   compound  readout_unit  result
0                Cc1ccccc1CC(=O)N(C)C1CCCC1             %     3.1
1  Cc1ccoc1-c1nnc(CN2CCCC(Cn3cncn3)C2)o1 (configuration not stated)             %    7.38
2  CS(=O)(=O)N1CCC(c2nnc3ccc(C(=O)N4CCCC4)cn23)C1 (configuration not stated)             %   -2.02
3  Cc1cc2c(=O)n3c(nc2s1)CCN(Cc1cnc(C(C)C)nc1)CC3             %    3.98
4       CCCc1nc(C)c(C(=O)NCCN2CCN(CC)CC2)s1             %   -2.25
5  CNC(=O)[C@@H]1C[C@H]2CN(Cc3ccco3)C[C@H]2N1C             %    4.11
6  CN(C(=O)CN1CCOC(Cn2cccn2)C1)c1nccs1 (configuration not stated)             %   -4.71
7  Cc1ncc(S(C)(=O)=O)c(C2CCCNC2)n1 (configuration not stated)             %    1.75

Item `CNC(=O)N1C[C@H]2C[C@H](C(=O)Nc3ccccc3)[C@@H](C1)O2` has what recorded Percent Effect?
-3.24

Item Cc1cncc(C2CCCN(C(=O)c3c[nH]c(=O)[nH]c3=O)C2)n1 (configuration not stated) has what recorded Percent Effect?
0.885

Item c1ccc(-n2ccc(CN3CCCC3Cn3cccn3)n2)cc1 (configuration not stated) has what recorded Percent Effect?
-7.17

Item `CCNC(=O)[C@@H]1C[C@@H](NC(=O)c2cccnc2O)CN1Cc1ccsc1` has what recorded Percent Effect?
17.1

Item `Cc1cccc(N2CCN(C(=O)Nc3cnn(CC(N)=O)c3)CC2)c1` has what recorded Percent Effect?
6.56

Item `COc1ccc(CNCc2ccnc(N3CCCCC3)c2)cc1OC` has what recorded Percent Effect?
2.87
